Biological target: LRRK2 (Homo sapiens)
Construct: truncated human FAK, RET, FLT3, JAK2, and LRRK2
Sequence (Q5S007 970-2527 limits assumed): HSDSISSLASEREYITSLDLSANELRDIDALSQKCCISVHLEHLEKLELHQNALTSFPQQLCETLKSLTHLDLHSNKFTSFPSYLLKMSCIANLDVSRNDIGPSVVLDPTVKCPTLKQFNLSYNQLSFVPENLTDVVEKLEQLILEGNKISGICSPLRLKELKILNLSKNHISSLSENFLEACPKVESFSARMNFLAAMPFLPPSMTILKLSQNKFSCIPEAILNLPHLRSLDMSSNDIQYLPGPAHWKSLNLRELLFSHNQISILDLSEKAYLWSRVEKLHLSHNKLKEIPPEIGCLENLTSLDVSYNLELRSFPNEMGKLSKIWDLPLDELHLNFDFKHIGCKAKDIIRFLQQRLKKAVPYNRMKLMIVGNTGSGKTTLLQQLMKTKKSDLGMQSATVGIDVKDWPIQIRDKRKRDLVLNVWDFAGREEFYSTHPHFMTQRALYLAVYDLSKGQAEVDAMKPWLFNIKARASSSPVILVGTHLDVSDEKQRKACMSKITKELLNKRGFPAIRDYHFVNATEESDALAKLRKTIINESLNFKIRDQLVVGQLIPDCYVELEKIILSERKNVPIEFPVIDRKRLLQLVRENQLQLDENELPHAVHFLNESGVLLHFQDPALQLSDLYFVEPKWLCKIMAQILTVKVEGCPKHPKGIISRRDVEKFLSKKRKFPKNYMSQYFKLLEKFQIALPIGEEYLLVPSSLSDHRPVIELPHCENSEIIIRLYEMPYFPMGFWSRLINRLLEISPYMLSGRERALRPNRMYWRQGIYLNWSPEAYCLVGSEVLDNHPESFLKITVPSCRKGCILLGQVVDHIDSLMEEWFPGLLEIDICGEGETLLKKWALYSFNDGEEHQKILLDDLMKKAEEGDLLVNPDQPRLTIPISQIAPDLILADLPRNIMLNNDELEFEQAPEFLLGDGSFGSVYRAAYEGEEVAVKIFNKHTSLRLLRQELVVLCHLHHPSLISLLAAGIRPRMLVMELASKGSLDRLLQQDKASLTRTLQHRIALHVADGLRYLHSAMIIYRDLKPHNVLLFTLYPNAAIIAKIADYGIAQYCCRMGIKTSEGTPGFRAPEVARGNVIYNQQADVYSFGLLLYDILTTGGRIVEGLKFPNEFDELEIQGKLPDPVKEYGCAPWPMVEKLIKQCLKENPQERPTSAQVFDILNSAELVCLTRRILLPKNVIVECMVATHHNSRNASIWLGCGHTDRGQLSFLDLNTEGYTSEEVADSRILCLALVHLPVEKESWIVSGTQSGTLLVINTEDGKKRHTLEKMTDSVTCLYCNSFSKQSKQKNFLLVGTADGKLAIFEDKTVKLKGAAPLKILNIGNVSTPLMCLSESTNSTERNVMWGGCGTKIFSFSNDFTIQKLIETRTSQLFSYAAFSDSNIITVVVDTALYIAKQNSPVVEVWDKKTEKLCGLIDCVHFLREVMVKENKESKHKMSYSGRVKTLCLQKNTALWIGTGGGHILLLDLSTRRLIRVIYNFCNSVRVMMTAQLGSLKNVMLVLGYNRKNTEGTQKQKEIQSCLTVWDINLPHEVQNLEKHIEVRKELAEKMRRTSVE
Experiment: Kinase inhibition assay: LRRK2
measured quantity: IC50 (nM)

[1] COc1cc(Nc2ncc(C)c(-n3cc(C)c(CN4CC(O)C4)c3)n2)cc(OC)c1OC
[2] COc1cc(Nc2ncc(C)c(-n3cc(C)c(CN4CCN(CCO)CC4)c3)n2)cc(OC)c1OC
Which has the higher IC50, 1 or 2 ? Choose, then provide that item's label. 1
(1: 424 nM, 2: 275 nM)

###

molecules and their reported inhibition at 1 µM
Test system: TNF-α release in THP-1 cells
Experiment: SYK dependent TNF-α release assay (IgG stimulation)
Type: cell-based, human
Conditions: Homo sapiens; THP-1 cells, IgG stimulation, 1 μM, 18-hour incubation
Please respond with the number in % and leave the unit unwritten.

Cc1cc(C)cc(Nc2ncc(F)c(-n3cc(C)c(CN4CC[C@@H](O)C4)c3)n2)c1 | 91.4
Cc1cc(C)cc(Nc2ncc(F)c(-n3cc(CN(C)C)c(C)n3)n2)c1 | 69.5
Cc1cc(C)cc(Nc2ncc(F)c(-n3ccc(CN(C)C)c3)n2)c1 | 94.5

Output inhibition at 1 µM of Cc1cc(C)cc(Nc2ncc(F)c(-n3cc(C)c(CN(C)C)c3)n2)c1 91.1

Output inhibition at 1 µM of Cc1cc(C)cc(Nc2ncc(F)c(-n3ccc(CN4CC[C@@H](O)C4)c3)n2)c1 99.4
